Recorded values, source patent US8703961B2.

Exercise: for every item that follows, state its recorded IC50.

**Query** Checklist item: IC50 tested on UniProtKB P27448, entry c1ccc(Cc2c[nH]c3ncsc23)cc1 [Compound A7, 6-benzyl-4H-pyrrolo[2,3-d]thiazole] , value?
**Result** 1 to 10 µM

**Query** Checklist item: IC50 tested on UniProtKB P27448, entry Nc1ncsc1C#Cc1cccc(O)c1 , value?
**Result** 10 to 100 µM

**Query** Checklist item: IC50 tested on UniProtKB P27448, entry CC(C)(C)OC(=O)Nc1ncsc1C#CCN1C(=O)c2ccccc2C1=O , value?
**Result** 1 to 10 µM

**Query** Checklist item: IC50 tested on UniProtKB P27448, entry Nc1ncsc1C#Cc1cnc2[nH]ccc2c1 , value?
**Result** 0.01 to 1 µM

**Query** Checklist item: IC50 tested on UniProtKB P27448, entry CC(C)(C)OC(=O)Nc1nc(-c2ccncc2)sc1C#CCN1CCOCC1 , value?
**Result** > 1 µM
